Measured MIC80 by item
- Tested on: Candida parapsilosis
- EXPERIMENT: Antifungal activity against Candida parapsilosis assessed as growth inhibition by microbroth dilution method
- Type: functional
- CONDITIONS_USED: Lodderomyces parapsilosis
Write the number in µg/mL without appending the unit.

// below: answered molecules
# MOLECULE, MIC80 / µg/mL
rows = [
    ("CN(Cc1cn(Cc2cccc([N+](=O)[O-])c2)nn1)CC(O)(Cn1cncn1)c1ccc(F)cc1F (configuration not stated)", 0.0625),
    ("Cc1ccccc1Cn1cc(CN(C)CC(O)(Cn2cncn2)c2ccc(F)cc2F)nn1 (configuration not stated)", 0.0625),
    ("Cc1ccc(Cn2cc(CN(C)CC(O)(Cn3cncn3)c3ccc(F)cc3F)nn2)cc1 (configuration not stated)", 0.0625),
    ("C[C@@H]1[C@H](O)[C@@H](C)/C=C/C=C/C=C/C=C/C=C/C=C/C=C/[C@H](O[C@@H]2O[C@H](C)[C@@H](O)[C@H](N)[C@@H]2O)C[C@@H]2O[C@](O)(C[C@@H](O)C[C@@H](O)[C@H](O)CC[C@@H](O)C[C@@H](O)CC(=O)O[C@H]1C)C[C@H](O)[C@H]2C(=O)O", 1),
    ("CN(Cc1cn(Cc2cccc(C#N)c2)nn1)CC(O)(Cn1cncn1)c1ccc(F)cc1F (configuration not stated)", 0.25),
]

Next molecule, please.
Give the value of MIC80 reported for the following: CN(Cc1cn(Cc2ccc(Br)cc2)nn1)CC(O)(Cn1cncn1)c1ccc(F)cc1F (configuration not stated) 0.25

# credit: ChEMBL document CHEMBL3217508
